- TEST TARGET: Human immunodeficiency virus type 1 reverse transcriptase (Human immunodeficiency virus 1, UniProt Q72547)
- METHOD SUMMARY: Inhibition of RNase H activity of recombinant HIV-1 reverse transcriptase p66/p51 expressed in Escherichia coli M15 using 5'-[gamma32P]ATP-labeled-tC5U RNA oligonucleotide/p12 DNA oligonucleotide hybrid as substrate incubated for 30 mins
REPORTED PROPERTY: IC50 (µM)
Numbers only, in µM.

Query block: Recorded IC50 of CCOC(=O)/C(O)=C/C(=O)/C=C/c1cccn1Cc1ccccc1Cl , please.
Result block: 7.3

* * *

- System: Human immunodeficiency virus type 1 reverse transcriptase (Human immunodeficiency virus 1), Q72547 [K451A]
- METHOD SUMMARY: Inhibition of recombinat HIV-1 group M subtype B His-tagged reverse transcriptase p66 K451A mutant expressed in Escherichia coli M15
- CONDITION NOTES: HIV-1 M:B
Activity calls are given as the source filed them. The rule behind the calls is not given here.
Please answer using one outcome listed in t for active, f for inactive

Examples with answers:
Query block: Answer briefly: the call reported for CCOC(=O)c1cc(-c2cn(Cc3ccc(F)cc3)cc2-c2ccc3ccccc3c2)n[nH]1 in this assay.
Result block: f

Query block: Now give it for CCOC(=O)c1cc(-c2cn(Cc3ccc(F)cc3)cc2-c2ccccc2)n[nH]1 too.
Result block: t

Query block: Now give it for CCOC(=O)c1cc(-c2cn(Cc3ccc(F)cc3)cc2-c2ccc(OCCCCc3ccccc3)cc2)n[nH]1 too.
Result block: f

More entries:
Query block: Answer briefly: the call reported for CCOC(=O)c1cc(-c2cn(Cc3ccc(F)cc3)cc2-c2ccc(OCc3ccccc3)cc2)n[nH]1 in this assay.
Result block: f

* * *

- METHOD SUMMARY: Selectivity index, ratio of CC50 for human HeLa cells expressing CD4-LTR-beta-gal assessed as reduction in cell viability measured after 24 hrs by CellTiter96 AQueous one solution cell proliferation assay to EC50 for HIV1 infected in human HeLa-CD4-LTR-betagal cells measured after 24 hrs by fluorescence based analysis
- Format: toxicity
- CONDITION NOTES: read-out: Ratio CC50/EC50
REPORTED PROPERTY: selectivity ratio at 24 h

Query block: Recorded selectivity ratio at 24 h of CCOC(=O)c1cc(-c2cn(Cc3ccc(F)cc3)cc2-c2ccc3ccccc3c2)n[nH]1 , please.
Result block: > 10

Now look at this entry.
Query block: Recorded selectivity ratio at 24 h of CCOC(=O)c1cc(-c2cn(Cc3ccc(F)cc3)cc2-c2ccc(OCCCCc3ccccc3)cc2)n[nH]1 , please.
Result block: > 10

* * *

- TEST TARGET: UniProt Q72547
- METHOD SUMMARY: Inhibition of RNase H activity of recombinant His-tagged HIV-1 group M subtype B reverse transcriptase p66/p51 expressed in Escherichia coli M15 using 18-nucleotide 3'-fluorescein-labeled RNA/5'-dabcyl-labeled DNA hybrid as substrate incubated for 1 hr
- Parameters: species or system HIV-1 M:B
pIC50: −log10 of the molar value.
Rule: pIC50 of 5 or more gives 1; anything lower gives 0.

Query block: hey, is pIC50 for this one >= 5? O=C(O)c1cc(-c2cn(Cc3ccc(F)cc3)cc2-c2ccc(OCCCCc3ccccc3)cc2)n[nH]1
Result block: 1

Query block: Now give it for O=C(COc1ccc(-c2cn(Cc3ccc(F)cc3)cc2-c2cc(C(=O)O)[nH]n2)cc1)Nc1ccc(C(=O)O)cc1 too.
Result block: 0

Query block: Now give it for CCOC(=O)c1cc(-c2cn(C)cc2-c2ccccc2)n[nH]1 too.
Result block: 0

Query block: Now give it for O=C(O)c1cc(-c2cn(Cc3cccc4ccccc34)cc2-c2ccc(OCCCCc3ccccc3)cc2)n[nH]1 too.
Result block: 1

Query block: Now give it for O=C(O)c1cc(-c2cn(Cc3ccc(F)cc3)cc2-c2ccccc2)n[nH]1 too.
Result block: 0

Query block: Now give it for O=C(O)c1cc(-c2ccn(Cc3ccc(F)cc3)c2)n[nH]1 too.
Result block: 0

Query block: Now give it for CCOC(=O)c1cc(-c2cn(Cc3cccc4ccccc34)cc2-c2ccc(OCc3cccc4ccccc34)cc2)n[nH]1 too.
Result block: 1

From here, focus on the item given below.
Query block: hey, is pIC50 for this one >= 5? CCOC(=O)c1cc(-c2cn(Cc3ccc(F)cc3)cc2-c2ccccc2)n[nH]1
Result block: 0
